Data origin, for the record: patent US6096930A

test system: MOOVA; experiment: Herbicidal activity for paddy test; type: in vivo; conditions: 0.500 kg/ha
quantity.measured: pest or weed control at 500 g/ha (%)
One number for each entry, in %.

compound: C=C(Cl)CON=C(CC)C1=C(O)CC(c2c(C)c(C)c3c(c2C)CC(C)(CC)C3)CC1=O (stereo not shown) [Compound 15]
readout.unit: %
pest or weed control at 500 g/ha: 30

compound: CCON=C(CC)C1=C(O)CC(c2c(C)c(C)c3c(c2C)CC(C)(C)C3)CC1=O (stereo not shown) [Compound 2]
readout.unit: %
pest or weed control at 500 g/ha: 0

compound: C=CCON=C(CCC)C1=C(O)CC(c2c(C)c(C)c3c(c2C)CC(C)(C)C3)CC1=O (stereo not shown) [Compound 8]
readout.unit: %
pest or weed control at 500 g/ha: 0

Find pest or weed control at 500 g/ha (MOOVA) for the entry CCCC(=NOC)C1=C(O)CC(c2c(C)c(C)c3c(c2C)CC(C)(C)C3)CC1=O (stereo not shown) [Compound 6]
0

---

test system: ORYSA; assay: Herbicidal activity for paddy test; type: in vivo; details: 3 Leaf, 0.125 kg/ha, read-out: Herbicidal activity, ORYSA (3 Leaf)
Exercise: for every item that follows, state its recorded plant injury at 125 g/ha.
State the value, then name its unit.

Below, each entry is followed by its recorded plant injury at 125 g/ha result.
compound: C=C(Cl)CON=C(CC)C1=C(O)CC(c2c(C)c(C)c3c(c2C)CC(C)(CC)C3)CC1=O (stereo not shown)
plant injury at 125 g/ha: 0%
//
compound: CCON=C(CC)C1=C(O)CC(c2c(C)c3c(c(C)c2Cl)CC(C)(C)C3)CC1=O (stereo not shown)
plant injury at 125 g/ha: 20%
//
compound: CCCC(=NOCC=CCl)C1=C(O)CC(c2c(C)c(C)c3c(c2C)CC(C)(CC)C3)CC1=O (stereo not shown)
plant injury at 125 g/ha: 0%

Turning to the following compound.
Bench note: what plant injury at 125 g/ha did CCCC(=NOCC)C1=C(O)CC(c2c(C)c(C)c3c(c2C)CC(C)(C)C3)CC1=O (stereo not shown) show?
20%

---

tested on: SCPJU; assay: Herbicidal activity for paddy test; assay type: in vivo; details: 0.125 kg/ha
quantity.measured: pest or weed control at 125 g/ha (%)
Numbers only, in %.

Below, each entry is followed by its recorded pest or weed control at 125 g/ha result.
compound: CCCC(=NOCC)C1=C(O)CC(c2c(C)c3c(c(C)c2Cl)CC(C)(C)C3)CC1=O (stereo not shown)
system.tested: SCPJU
pest or weed control at 125 g/ha [%]: 0

compound: CCC(=NOC)C1=C(O)CC(c2c(C)c(C)c3c(c2C)CC(C)(C)C3)CC1=O (stereo not shown)
system.tested: SCPJU
pest or weed control at 125 g/ha [%]: 0

compound: C=CCON=C(CC)C1=C(O)CC(c2c(C)c(C)c3c(c2Cl)CC(C)(C)C3)CC1=O (stereo not shown)
system.tested: SCPJU
pest or weed control at 125 g/ha [%]: 0

compound: CCC(=NOC)C1=C(O)CC(c2c(C)c(C)c3c(c2Cl)CC(C)(C)C3)CC1=O (stereo not shown)
system.tested: SCPJU
pest or weed control at 125 g/ha [%]: 0

compound: CCCC(=NOCC)C1=C(O)CC(c2c(C)c(C)c3c(c2C)CC(C)(C)C3)CC1=O (stereo not shown)
system.tested: SCPJU
pest or weed control at 125 g/ha [%]: 0

compound: CCCC(=NOC)C1=C(O)CC(c2c(C)c(C)c3c(c2C)CC(C)(C)C3)CC1=O (stereo not shown)
system.tested: SCPJU
pest or weed control at 125 g/ha [%]: 0

compound: C=CCON=C(CC)C1=C(O)CC(c2c(C)c3c(c(C)c2Cl)CC(C)(C)C3)CC1=O (stereo not shown)
system.tested: SCPJU
pest or weed control at 125 g/ha [%]: 0

compound: CCCC(=NOCC=CCl)C1=C(O)CC(c2c(C)c(C)c3c(c2C)CC(C)(C)C3)CC1=O (stereo not shown)
system.tested: SCPJU
pest or weed control at 125 g/ha [%]: 0

compound: C=CCON=C(CCC)C1=C(O)CC(c2c(C)c3c(c(C)c2Cl)CC(C)(C)C3)CC1=O (stereo not shown)
system.tested: SCPJU
pest or weed control at 125 g/ha [%]: 0

Bench note: what pest or weed control at 125 g/ha did CCC(=NOC)C1=C(O)CC(c2c(C)c(C)c3c(c2C)CC(C)(CC)C3)CC1=O (stereo not shown) show?
0
